Where do these numbers come from? They come from patent US12545637B2.

Tested on: 293T cells
Experiment: Cell survival rate assay (CCK-8)
Type: cell-based
Conditions: difference vs YK-408
Procedure: Cell recovery and passage: 293T cells were recovered, cultured in a culture dish, and passaged to the required number of cells. Seeding plate: The cells in the culture dish were digested and counted. Cells were spread in a 96-well plate at 10,000 cells per well and in a 12-well plate at 150,000 cells per well. Cells were cultured overnight until the cells adhered to the wall. […]
METRIC: cell survival rate higher than YK-408
Write the figure, then the unit, nothing else.

Here are 5 molecules together with their reported answers.
- STRUCTURE NOTATION: "CCCCCCCCC(CCCCCCCC)COC(=O)CCCCCN(CCCO)CCN(CCCO)CCCCCC(=O)OCC(CCCCCCCC)CCCCCCCC"
  METRIC: "cell survival rate higher than YK-408"
  RESULT: "28.17%"
- STRUCTURE NOTATION: "CCCCCCCCC(CCCCCCCC)COC(=O)CCCCCN(CCCO)CCCN(CCCO)CCCCCC(=O)OCC(CCCCCCCC)CCCCCCCC"
  METRIC: "cell survival rate higher than YK-408"
  RESULT: "28.83%"
- STRUCTURE NOTATION: "CCCCCCCCC(CCCCCCCC)C(=O)OCCCCCCN(CCO)CCN(CCO)CCCCCCOC(=O)C(CCCCCCCC)CCCCCCCC"
  METRIC: "cell survival rate higher than YK-408"
  RESULT: "30.39%"
- STRUCTURE NOTATION: "CCCCCCCCCCCOC(=O)CCCN(CCO)CCN(CCO)CCCCCC(=O)OC(CCCCCCCC)CCCCCCCC"
  METRIC: "cell survival rate higher than YK-408"
  RESULT: "29.06%"
- STRUCTURE NOTATION: "CCCCCCCCC(CCCCCCCC)OC(=O)CCCCCN(CCO)CCN(CCO)CCCCCC(=O)OC(CCCCCCCC)CCCCCCCC"
  METRIC: "cell survival rate higher than YK-408"
  RESULT: "32.90%"

Turning to the following molecule.
Problem: # query: cell survival rate higher than YK-408 of entry CCCCCCCCC(CCCCCCCC)OC(=O)CCCCCCCN(CCO)CCN(CCO)CCCCCCCC(=O)OC(CCCCCCCC)CCCCCCCC
Result: 28.45%
